test: chemical genetic growth profiling, strain panel (AID 1159580);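 further: tested at 20 µM; growth read once vehicle control cultures reached saturation at 30 °C; 1 = growth at the plate median or of vehicle wells; lower values mean less growth of the strain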; conditions: S. cerevisiae deletion strains, growth OD, locus YGL227W, strain vid30, stronger effect = lower value
In all, about 5,500 compounds went through this assay and about 2,000 (36%) were called active. Another 18% or so got no clear call; they are omitted. The list shows a part of the results.
Endpoint name: normalized growth
Field format: numeric only.

Task item: Bench note: what normalized growth did `C=C[C@H]1CN2CC[C@H]1C[C@@H]2[C@H](O)c1ccnc2ccccc12` show?
Reply: 0.984

More entries:
Task item: Bench note: what normalized growth did `COc1cc([C@@H]2c3cc4c(cc3[C@H](OC(C)=O)[C@H]3COC(=O)[C@@H]23)OCO4)cc(OC)c1OC` show?
Reply: 0.994

Task item: Continue with `COc1ccc(C(=O)N2CCCC2=O)cc1`
Reply: 0.971

Task item: Continue with `COc1cc(OC)c(OC)cc1C=O`
Reply: 0.992

###

test: chemical genetic growth profiling, strain panel (AID 1159580);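 further: tested at 20 µM; growth read once vehicle control cultures reached saturation at 30 °C; 1 = growth at the plate median or of vehicle wells; lower values mean less growth of the strain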; details: S. cerevisiae deletion strains, growth OD, locus YGL173C, strain kem1
Among all 5,500 compounds or so, about 2,000 (36%) were called active. Roughly 18% stayed inconclusive and do not appear here. Rule as the data show it: active = normalized growth mostly below about 0.91 (no sharp cut-off); inconclusive = no clear call, values can overlap the other calls; inactive = mostly above about 0.92. The list shows a part of the results.
Outcome (select one): active, inactive

Task item: Any idea what this test logged for CC(CCC(=O)O)[C@H]1CCC2C3C(C[C@H](O)[C@@]21C)[C@@]1(C)CC[C@@H](O)C[C@H]1C[C@H]3O (stereo partly drawn) ?
Reply: inactive

Task item: Continue with CC(C)CCCC(C)C1CCC2C3CC[C@H]4CCCC[C@]4(C)C3CC[C@]12C (stereo partly drawn)
Reply: inactive

Task item: Continue with C[C@@H]1O[C@@H](O[C@H]2C[C@@H](O)[C@]3(CO)C4C(CC[C@]3(O)C2)[C@@]2(O)CC[C@H](C3=CC(=O)OC3)[C@@]2(C)C[C@H]4O)[C@H](O)[C@H](O)[C@H]1O (stereo partly drawn)
Reply: inactive

Task item: Continue with CC(CCC(=O)O)[C@H]1CCC2C3CC[C@@H]4C[C@H](O)CC[C@]4(C)C3CC[C@@]21C (stereo partly drawn)
Reply: active

Task item: Continue with CC(CCC(=O)O)[C@H]1CCC2C3CC[C@@H]4C[C@H](O)CC[C@]4(C)C3C[C@H](O)[C@@]21C (stereo partly drawn)
Reply: inactive

More entries:
Task item: Any idea what this test logged for `O=[N+]([O-])c1cccc2c(Br)[nH]nc12` ?
Reply: inactive

Task item: Continue with COC(=O)CCC(C)C1CCC2C3CC[C@@H]4C[C@H](O)CC[C@]4(C)C3C[C@H](O)[C@]12C (stereo partly drawn)
Reply: inactive

Task item: Continue with `C/C=C/C(=O)N(CC)c1ccccc1C`
Reply: inactive

###

assay: chemical genetic growth profiling, strain panel (AID 1159580);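 further: tested at 20 µM; growth read once vehicle control cultures reached saturation at 30 °C; 1 = growth at the plate median or of vehicle wells; lower values mean less growth of the strain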; conditions: S. cerevisiae deletion strains, growth OD, locus YIL125W, strain kgd1, stronger effect = lower value
Among all 5,500 compounds or so, about 2,000 (36%) were called active. About 18% were inconclusive and are not listed. Some of the results follow.
# normalized growth annotations
Field format: numeric only.

Past entries and their recorded results:
Task item: Bench note: what normalized growth did `N[C@@H](Cc1cc(I)c(Oc2cc(I)c(O)c(I)c2)c(I)c1)C(=O)O` show?
Reply: 1.04

Task item: Continue with `N[C@@H](Cc1cc(I)c(Oc2ccc(O)c(I)c2)c(I)c1)C(=O)O`
Reply: 1

Task item: Continue with `N[C@H](Cc1ccccc1)C(=O)O`
Reply: 0.994

More entries:
Task item: Bench note: what normalized growth did `O=C(Nc1ccccc1)c1ccccc1O` show?
Reply: 0.984

Task item: Continue with CC(=O)O[C@H]1CC[C@]2(C)C3C(=O)[C@@H](OC(C)=O)[C@@]4(C)C(C[C@@H]5O[C@]6(CCC(C)CO6)[C@@H](C)[C@@H]54)C3CC[C@H]2C1 (stereo not given in full)
Reply: 0.987

Task item: Continue with NC(Cc1ccc(F)cc1)C(=O)O (stereo not given)
Reply: 1.02

Task item: Continue with CC1CC2C3CC(F)C4=CC(=O)C=CC4(C)C3(F)C(O)CC2(C)C1C(=O)COC(=O)C(C)(C)C (stereo not given)
Reply: 1.02

Task item: Continue with `COc1cc(OC)c2c3c1C(=O)c1c(OC)cc(C)c4c(OC)cc(c-3c14)C(C)(C)C2=O`
Reply: 0.994

Task item: Continue with CC1CCC2(OC1)OC1CC3C4CCC5C[C@@H](O)CCC5(C)C4=CCC3(C)C1[C@@H]2C (stereo not given in full)
Reply: 0.982

Task item: Continue with CN(C)CCC(c1ccc(Br)cc1)c1ccccn1 (stereo not given)
Reply: 0.998

All figures here come from PubChem BioAssay AID1159580.
